B1: Pistol ribozyme (parent)
chain: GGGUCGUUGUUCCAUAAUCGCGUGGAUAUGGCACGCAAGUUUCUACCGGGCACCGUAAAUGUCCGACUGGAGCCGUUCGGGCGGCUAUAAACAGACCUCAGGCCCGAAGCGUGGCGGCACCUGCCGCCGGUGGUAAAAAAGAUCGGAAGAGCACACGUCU

variants of: B1; experiment: aptazyme ON/OFF ratio, guanine; higher = stronger switching; co-transcriptional cleavage with and without guanine
Property Name: aptazyme ON/OFF ratio
Lab note: record just the number, no unit beside it.

Variant Id: U7C U8G U11G C12G C13A
Property Name: aptazyme ON/OFF ratio
Reported Value: 1.07
--
Variant Id: U7G U8C G9U U10G C12G C13G
Property Name: aptazyme ON/OFF ratio
Reported Value: 1.23

Please examine the following record next.
Q: What aptazyme ON/OFF ratio value was documented for this variant, U8A U10A U11A C12A C13U ?
Ans: 1.11
